Test system: HCV genotype 1b (Con1) replicon in HUH-7 cells
Method Notes: HCV replicon luciferase reporter assay, genotype 1b
Assay type: cell-based
Condition: Hepatitis C virus, Huh-7, 72 h, HCV genotype 1b replicon luciferase, 3 days incubation, read-out: LE_1b (EC50, range)
Reported EC50 values for a set of molecules

| Smiles Record | EC50 |
| --- | --- |
| CC[C@@H]1C[C@H](C)CC/C=C\[C@@H]2C[C@@]2(C(=O)NS(=O)(=O)C2CC2)NC(=O)[C@@H]2C[C@@H](Oc3nc4cc(OC)c(F)cc4nc3O)CN2C(=O)[C@H]1NC(=O)OC(C)(C)C | 35 to 620 nM |
| CC[C@@H]1C[C@H](C)CC/C=C\[C@@H]2C[C@@]2(C(=O)NS(=O)(=O)C2CC2)NC(=O)[C@@H]2C[C@@H](Oc3nc(-c4ccc(OC(C)C)cn4)cc4cc(OC)ccc34)CN2C(=O)[C@H]1NC(=O)OC(C)(C)C(C)(F)F | 1.01 to 5 nM |
| CC[C@@H]1C[C@H](C)CC/C=C\[C@@H]2C[C@@]2(C(=O)NS(=O)(=O)C2(C)CC2)NC(=O)[C@@H]2C[C@@H](Oc3ncc(OC)c4ccc(F)cc34)CN2C(=O)[C@H]1NC(=O)c1ccn(C)n1 | 0.1 to 0.5 nM |
| CCC(C)(CC)OC(=O)N[C@@H]1C(=O)N2C[C@H](Oc3nccc4c5c(ccc34)OCCO5)C[C@H]2C(=O)N[C@]2(C(=O)NS(=O)(=O)C3CC3)C[C@H]2/C=C\CC[C@H](C)C[C@H]1C | < 5.46 nM |
